assay: Agilent ZORBAX 300 SB-C18, 150 × 1 mm, 3.5 µm; A: water + 0.01% heptafluorobutyric acid; B: acetonitrile + 0.01% heptafluorobutyric acid; gradient (min/%B) 0/0 100/90; conditions: stereoisomer not certain
METRIC: LC retention time (min)

CC1CCCCN1C(=S)NCc1ccccc1 (configuration not stated); 14.3
COC(=O)CC1CN=C(N2CCCCC2)NC1=O (configuration not stated); 7.95
Cc1ccc(C(=O)NCCn2cccc2)cc1; 11.9
CCCNCCN; 7
O=C(CN1CCc2ccccc2C1)NC1CCCC1; 8.99
Cc1[nH]c2ccc(C(=O)O)cc2c1CC(=O)O; 8.13
CCC(C)NC(C)CC (configuration not stated); 8.16
CC1=NC(=Cc2ccccc2)C(=O)O1; 9.16
Cc1ccc(C(=O)NC(C)c2ccc(O)cc2)cc1 (configuration not stated); 11.1
Cc1cccc(Oc2cc(C)nc3ccc(C)cc23)c1; 11.8
CCOC(=O)C(N)Cc1ccccc1 (configuration not stated); 9.03
CCCn1cnc2c1c(=O)n(CCCCC(C)=O)c(=O)n2C; 10.2

* * *

assay: Agilent ZORBAX 300 SB-C18, 150 × 1 mm, 3.5 µm; A: water + 0.01% heptafluorobutyric acid; B: acetonitrile + 0.01% heptafluorobutyric acid; gradient (min/%B) 0/0 100/90; details: stereoisomer not certain
Note to self: use y only for LC retention time readings below 10 min; a reading exactly at 10 min still gets n.

CCCCN1CNC(=S)N(c2ccccc2C)C1; n
CC(=O)C1CCC2C3CC(C)C4=CC(=O)CCC4(C)C3C(O)CC12C (configuration not stated); n
c1cncc(CNc2c3c(nc4ccccc24)CCC3)c1; y
N=c1c2c3c(sc2ncn1N)CCC3; y
Cn1cnnc1-c1ccncc1; y
CCCCN=CC1=C(O)CC(c2ccccc2)CC1=O (configuration not stated); n
c1ccc(Sc2ccc3ccccc3n2)cc1; n

* * *

assay: Agilent ZORBAX 300 SB-C18, 150 × 1 mm, 3.5 µm; A: water + 0.01% heptafluorobutyric acid; B: acetonitrile + 0.01% heptafluorobutyric acid; gradient (min/%B) 0/0 100/90; conditions: stereoisomer not certain
Reported values of LC retention time for individual entries
METRIC: LC retention time

COc1ccc2c(c1)C(C)CC(C)(C)N2 (stereo not given); 9.43 min
CC(C)(C)Nc1ncnc2ccccc12; 9.02 min
Nc1c2c(nc3ccccc13)N(C1CCCCC1)CC2; 10.9 min
CN(C)c1c[nH]c(=O)[nH]c1=O; 6.22 min
Nc1ccc(NC(=O)c2cccc(C(=O)Nc3ccc(N)cc3)c2)cc1; 7.98 min
CCCCNC(=O)c1c[nH]c2ccccc2c1=O; 12.9 min
O=C1CCCN1CCc1ccccn1; 6.77 min
Nc1nc2c([nH]c(=O)n2C2CC(O)C(CO)O2)c(=O)[nH]1 (stereo not given); 6.05 min
CCn1cc(CCO)c2ccccc21; 11.7 min
CN(C)CCOC(C)(c1ccccc1)c1ccccn1 (stereo not given); 8.98 min
CC(C)Cn1c(Cc2ccccc2)nc2ccccc21; 11.4 min
Nc1ccc2c(c1)CCC2; 8.35 min
CC1NCCC2(O)CCCCC12 (stereo not given); 7.09 min
C=CCN1CCC23CCCCC2C1Cc1ccc(O)cc13 (stereo not given); 9.82 min
Nc1nc(N)nc(-c2ccc(-c3nc(N)nc(N)n3)cc2)n1; 7.16 min
CC(C)(C)c1ccc(NC(=O)NCc2ccco2)cc1; 14.5 min
COc1ccc(NC(=O)Nc2ccc(OC)c(OC)c2)cc1OC; 10.2 min
Nc1cccc(C2=NCCN2)c1; 6.85 min
CNCc1ccccc1; 7.43 min
Cc1ccc(CNC(=S)Nc2ccccc2)n1C; 13.1 min
CNCCOC; 4.63 min
CC(C)CC(NC(=O)CN)C(=O)O (stereo not given); 7.75 min
CNCc1cccn1C; 7.09 min
O=S(=O)(O)c1ccc(Nc2ccccc2)cc1; 7.25 min
C[N+](C)(C)c1ccccc1; 7 min
CC(=O)N1c2ccc(N)cc2CC1C (stereo not given); 7.53 min
O=C1OC(c2c[nH]c3ccccc23)c2ccccc21 (stereo not given); 12.4 min
Oc1ccccc1N1CCCCC1; 7.89 min
Oc1ccc(-c2cnc3ccccc3n2)cc1; 11.4 min
NC1CCCC1; 6.51 min
Cc1c(N=Cc2ccncc2)c(=O)n(-c2ccccc2)n1C; 8.92 min
NCCCCCCCCN; 7.2 min
CC(=O)CC(C)(C)N; 6.26 min
O=C(O)c1c(-c2ccccc2)c(-c2ccccc2)n[nH]c1=O; 9.72 min
CC(=O)Nc1ccc(C2=NNC(c3ccccc3)C2)cc1 (stereo not given); 10.3 min
